Entries and their protein stability index
experiment: protein stability index of a GFP-peptide fusion (GPS, HEK-293T) (PSI 1-6); higher = more stable; conditions: treatment: MLN4924 1 uM, 8 h; c terminus: a fixed tail appended;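 also: 24-mer peptide tiles fused after GFP, lentivirally expressed, FACS-sorted into six equal bins by GFP/DsRed ratio, decoded by Illumina sequencing, PSI is the read-weighted mean bin number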
Note: the reply should be a number with no unit written.

> print(dat)
                       residue.codes            endpoint.name  obs.value
1   ASSGQHHDFLSDLFSDDYGGKNCK [CEBPB]  protein stability index       4.66
2  SPMSAATLGGLNPSPSEVITPWTP [SMTNL2]  protein stability index       4.46
3   INRVSTCYSEEITVCGDLHGQLDD [PPEF2]  protein stability index       3.96
4   VDEYFRQPVVDTFDIRILMAKSVK [CARM1]  protein stability index       2.64
5  LTCEFNNNHESLDEELHLLIISCR [FBXO39]  protein stability index       2.41
6    EVHFLHEESILERVQQHIESKLLG [MLH1]  protein stability index       3.19

Task: Form field: reported protein stability index of YILECDHHGGDYKHWREWGSHAQT [CRYBA1]
Result: 2.43

Task: Form field: reported protein stability index of MSTNTVGLGLPMSRSQNTDMVQKS [CLINT1]
Result: 4.7

Task: Form field: reported protein stability index of MSSQVVGIEPLYIKAEPASPDSPK [ESRRA]
Result: 4.89

Task: Form field: reported protein stability index of EYFFDRNRPSFDAILYYYQSGGRL [KCNA1]
Result: 2.18

Task: Form field: reported protein stability index of QDGVLDLSTKKSPCAGSTSLSHSP [LCOR]
Result: 4.96

Task: Form field: reported protein stability index of NKIKVMHKQLLLFHNAVSAYFAGN [ARFIP2]
Result: 2.34

Task: Form field: reported protein stability index of VISCTIFIVGMVGNATLLRIIYQN [EDNRA]
Result: 2.29

---

experiment: protein stability index of a GFP-peptide fusion (GPS, HEK-293T) (PSI 1-6); higher = more stable; settings: treatment: DMSO; c terminus: a fixed tail appended
ENDPOINT NAME: protein stability index
Note: the reply should be a number with no unit written.

# annotated cases, reported protein stability index shown
> print(dat)
                         residue.codes            endpoint.name  obs.value
1  WTRNPDDITQEEYGEFYKSLTNDW [HSP90AB1]  protein stability index       3.81
2  KFQLNKYTGEIKISENLDYEETGF [PCDHGA10]  protein stability index        2.6
3   SGSSYCSFPPSLSSSSSSSPTSGS [LURAP1L]  protein stability index       4.32
4      MPDEPVEAPALPAPAAPMVSKGAE [BRD3]  protein stability index       5.17
5      QNLQEEKERKLECLPPEPSPDDPE [FAF2]  protein stability index       5.44
6    PRAAHACATVGNRGFVFGGRYRDA [KLHDC2]  protein stability index       2.19

Now for another entry.
Task: Form field: reported protein stability index of PLDFEAYSAAALQEAMKRLRGAKA [FCHO1]
Result: 3.46

---

assay: protein stability index of a GFP-peptide fusion (GPS, HEK-293T) (PSI 1-6); higher = more stable; settings: treatment: DMSO; c terminus: a fixed tail appended
Entries and their protein stability index
Note: the reply should be a number with no unit written.

# annotated cases, reported protein stability index shown
> print(dat)
                        residue.codes  obs.value
1  PIDFEESRFYEIHARARDQGQPAM [PCDHGC5]        4.3
2     LVQHGVKPQEIVQVEIFSTNPDLY [IQUB]       2.15
3   SRSAILIQHRRTHTDSKYEHAIAE [ZNF396]       3.63
4    SLSEALDLIESDPDAWCDLSKFDL [MYBL2]       3.61
5     GVLHKHQRALHKYSLMKRQMMSAT [SNX8]        2.4

Task: Form field: reported protein stability index of SSCENKRADLVFIIDSSRSVNTHD [MATN2]
Result: 2.81

Task: Form field: reported protein stability index of IVSQKQMSDRRENDMSPSNNVVPI [RAB11A]
Result: 4.34

Task: Form field: reported protein stability index of NRLLQEENRTLQVLRAEHRGFQEE [CBY2]
Result: 4.43

Task: Form field: reported protein stability index of LLVLLLYAPVGFCLLVLRLFLGIH [AUP1]
Result: 2.21

Task: Form field: reported protein stability index of QATLPVGSPSRPLSRRQLCPLTPG [C2CD2L]
Result: 3.61

---

test: protein stability index of a GFP-peptide fusion (GPS, HEK-293T) (PSI 1-6); higher = more stable; settings: treatment: MLN4924 1 uM, 8 h; c terminus: a fixed tail appended
Binary classification by protein stability index, with 3 as an inclusive lower bound for 1.0; all other cases are 0.0.

> print(dat)
                       residue.codes  discrete.label
1   FKTIEELRDKIMATTIDNSRVILE [KRT15]             0.0
2  HLLIPELGACVAPGGNLIVELARY [DNAAF3]             0.0
3    VKQEIAEMRIPALNAYMKSLLSLP [NCF4]             0.0
4    SGGPPPKRSAPSGPVRSSSGMGGR [RBMX]             1.0
5  WAMRRSYEAIAKHNQVEAAWLEGR [TRIM35]             0.0

As a next step, examine the sequence that follows.
Task: Does the reported protein stability index for RYPVCKFPSLQVTAILIECGADVN [FEM1C] fall at or above the 3 mark?
Result: 0.0

---

Entries and their protein stability index
test: protein stability index of a GFP-peptide fusion (GPS, HEK-293T) (PSI 1-6); higher = more stable; conditions: treatment: DMSO; c terminus: a fixed tail appended
Note: the reply should be a number with no unit written.

# annotated cases, reported protein stability index shown
> print(dat)
                        residue.codes            endpoint.name  obs.value
1     LSPLRAASDPLLSSVSPAVSKASS [TFE3]  protein stability index       4.47
2    EVASNTEMIQTSKTEITDLRRTMQ [KRT15]  protein stability index       3.89
3    NCHIGGSFSEETEKKFEHFSGLLN [LOXL2]  protein stability index       3.02
4      HISTFINELDSGFRLLNLKNDSLR [TSN]  protein stability index       2.23
5  RMDKRTLALLVLAHSSDVLENVFS [GOLPH3L]  protein stability index       2.37
6    VIPECAHGGLYKPVQCHPSTGYCW [SMOC2]  protein stability index       2.38

Now for another entry.
Task: Form field: reported protein stability index of VTGPDNGVRESETEQGFGEDLEDL [NFE2L1]
Result: 5.79

---

Entries and their protein stability index
assay: protein stability index of a GFP-peptide fusion (GPS, HEK-293T) (PSI 1-6); higher = more stable; conditions: treatment: MLN4924 1 uM, 8 h; c terminus: native
Note: the reply should be a number with no unit written.

> print(dat)
                      residue.codes  obs.value
1  DDEDEEEEDADCYDDDDSGNEES [UBE2R2]       5.57
2  LQFDPAPRRGEPHVTRRTPDYFL [PPP2CA]       4.18
3   HDGHLYLGSFRSPFLCRLSLQAV [APMAP]       3.31
4   PLLRWVLTLSFLVATVAVGLYAM [HMOX1]       2.57

Now for another entry.
Task: Form field: reported protein stability index of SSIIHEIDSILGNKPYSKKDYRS [KCNAB2]
Result: 3.53

---

assay: protein stability index of a GFP-peptide fusion (GPS, HEK-293T) (PSI 1-6); higher = more stable; settings: treatment: DMSO; c terminus: a fixed tail appended
Binary classification by protein stability index, with 3 as an inclusive lower bound for t; all other cases are f.

Use these answered entries as a reference point.
> print(dat)
                       residue.codes  discrete.label
1    NASHKLEVRLVPVSFEDPEFKSSF [ATE1]               f
2   TTYDRRSSQERKFMEERELLGQDE [RSPH3]               t
3   DAFWWAVVSMTTVGYGDMYPVTIG [KCNA1]               t
4   PAPTPTPPGRLGAPYSEAWGYFHL [ZBED3]               f
5  SYPMRRSYRYKLLNWAYQQVQQNK [STEAP1]               f
6  KSAHQTHSSWTPPNAQYWSQFHSV [DNAJC4]               f

Task: Does the reported protein stability index for YKILLDVKTRLEQEIATYRRLLEG [KRT17] fall at or above the 3 mark?
Result: f

Task: Does the reported protein stability index for QGPMSQRRENYGVPPRRATISSWR [RBMY1A1] fall at or above the 3 mark?
Result: t

Task: Does the reported protein stability index for LLPLRTKVAKLLGYSTHADFVLEM [NLN] fall at or above the 3 mark?
Result: f

Task: Does the reported protein stability index for AARSGDAAANKLFHYIPGTDILDL [PLEKHN1] fall at or above the 3 mark?
Result: t

Task: Does the reported protein stability index for SVKLRGSSLFMDTEKSGKREFDVR [WEE1] fall at or above the 3 mark?
Result: t

Task: Does the reported protein stability index for AGPAGTGTPSLLRGKRGGHATNYR [EMID1] fall at or above the 3 mark?
Result: t

Task: Does the reported protein stability index for LRKQLQPTHCKYEGPRKARRLWFA fall at or above the 3 mark?
Result: f

Task: Does the reported protein stability index for VTATDQKVEKMLISSIKEKYPSHS [IMPA1] fall at or above the 3 mark?
Result: t

Task: Does the reported protein stability index for VSMEIFFKAWLHNSGTDQEQIHLL [M1AP] fall at or above the 3 mark?
Result: f

Task: Does the reported protein stability index for FTTSILRHWCMKHDELLAEHIKSL [INTS3] fall at or above the 3 mark?
Result: f

Task: Does the reported protein stability index for NGATDDSKTNLIVNYLPQNMTQDE [ELAVL3] fall at or above the 3 mark?
Result: t

Task: Does the reported protein stability index for ELKKMVQQSDLGQYVTFLRSFSDK [ALG2] fall at or above the 3 mark?
Result: f

Task: Does the reported protein stability index for SLFVLDQNDNAPEILYPALPTDGS [PCDHGA10] fall at or above the 3 mark?
Result: t

Task: Does the reported protein stability index for VDITPYLDQLDESLRDKVLQLQKG [INTS3] fall at or above the 3 mark?
Result: t

Task: Does the reported protein stability index for FSTSKWNHLLHHFVIGHLKGAPAS [FADS1] fall at or above the 3 mark?
Result: f

Task: Does the reported protein stability index for QNCLWTLRNLSDAATKQEGMEGLL [CTNNB1] fall at or above the 3 mark?
Result: t

Task: Does the reported protein stability index for EMPKSSDFLIHPPERSDLTLYLIV [PCDHGC5] fall at or above the 3 mark?
Result: f

Task: Does the reported protein stability index for SMPQKFLGDKGLSDTPYDSSASYE [IKZF1] fall at or above the 3 mark?
Result: t

Task: Does the reported protein stability index for VAEAFRALASAQCPQFGIPRKRLK [SPOPL] fall at or above the 3 mark?
Result: f

Task: Does the reported protein stability index for HIPSQEVPGTQVGQGGKLWDPSVQ [ZNF263] fall at or above the 3 mark?
Result: t

Task: Does the reported protein stability index for PSGCAIACGGLDNKCSVYPLTFDK [GNB5] fall at or above the 3 mark?
Result: f

From: the supplement of paper PMC10567573
